valueType: melting point

# compound, result
data = [
    ("CC(C)Oc1nccc(-c2c(-c3ccc(F)cc3)ncn2C2CCNCC2)n1", "121 to 122 °C"),
    ("Cc1c(F)c(N2CCNCC2)c(C)c2c1c(=O)c(C(=O)O)cn2C1CC1", "185 to 187 °C"),
    ("CCCN(C1=C(O)CC(C2CCCC2)(C2CCCC2)OC1=O)c1cccc(NS(=O)(=O)c2ccccn2)c1", "105 to 107 °C"),
    ("O=C1c2cccc3c4c(cc(c23)C(=O)N1O)OCCO4", "344 to 347 °C"),
    ("O=C1C(O)=C(O)C(=O)c2cc(Cl)ccc21", "228 to 229 °C"),
]

Next item in the queue.
Q: Record request: melting point value, item "O=C(C#CCCc1cccc(CF)n1)Nc1ccc(F)cc1"
Ans: 110 °C
